- Test system: U2OS
- assayProtocol: Multiplex assay against U2OS
- Type: toxicity, cell-based
- testParameters: human, 48 h, 1 µM, compound concentration 1 uM, replicate 2
Lab note: compare Population Pyknosed Nuclei (%) against 9%. Equal or greater, write Satisfied. Smaller, write Not satisfied.

# compound, testedOn, category
rows = [
    ("N#Cc1cc(F)cc(-c2nc(-c3ccc(F)cn3)no2)c1", "U2OS", "Not satisfied"),
    ("Br.CS(=O)(=O)Nc1c(O)ccc2c1CCCC2C1=NCCN1 (stereo unspecified)", "U2OS", "Satisfied"),
    ("O=C(CCCc1ccccc1)Nc1nc2ccccc2c(=O)s1", "U2OS", "Not satisfied"),
    ("CC(=O)Nc1cccc2c1c(Sc1ccc(Cl)cc1)c(C)n2CC(=O)O", "U2OS", "Not satisfied"),
    ("CCc1cc2cc(NS(=O)(=O)c3ccc(C#N)cc3)ccc2n(CC)c1=O", "U2OS", "Not satisfied"),
]
